tested on: M14 melanoma; experiment: NCI tumour cell line growth inhibition, 48 h
measurement.label: TGI

Q) Look up TGI for this compound: CCOC(=O)c1sc2c(c1O)c(=O)n(-c1ccccc1)c(=S)n2-c1ccccc1
A) > 100 µM

Q) Same for COC(=O)C1=C(OC(=O)/C=C/c2ccc(Cl)cc2)C(C(=O)OC)[C@]2(O)[C@@H](C(=O)OC)[C@H]1C[C@@H](c1ccccc1)[C@@H]2C(=O)OC (some centres undefined)
A) 49.8 µM

Q) Proceed to C[C@@H]1OC2(O)[C@H]3CCCN3S(=O)(=O)CCN2C1=O (some centres undefined)
A) > 100 µM

Q) Likewise for C[N+]1(CCC(=O)c2ccccc2)CCC2CCC(C2)C1 (centres undefined) ?
A) > 100 µM

Q) And COc1cc(C2SCC(=O)N2c2ccc(NC(C)=O)cc2)cc(OC)c1OC (centres undefined) ?
A) > 100 µM

Q) Next compound: CCO/C(O)=C(/C(=N)N1CCCC1)C(=O)Nc1cccc(Cl)c1
A) > 100 µM

Q) And N=c1ccc2nc(N)nn(O)c-2c1 ?
A) > 100 µM

Q) Now the compound C=C1C(=O)O[C@H]2[C@H]1CC/C(Cn1cc(-c3cccc(Cl)c3)nn1)=C\CC[C@@]1(C)O[C@@H]21
A) 2.2 µM

Q) Let us now turn to NC1=NC(=O)/C(=C/c2ccc3ncccc3c2)S1
A) > 25 µM

Q) Cool, now C(=Nc1cnc2ccccc2c1)c1ccc2ccccc2n1
A) > 100 µM

Q) // repeat for Cc1n[n+]([O-])c(C)cc1[N+](=O)[O-] and report
A) 30.7 µM

Q) Same thing, different compound: CCOC(=O)CCC(NC(=O)C(N)c1ccc([N+](=O)[O-])cc1)C(=O)NC(CCC(=O)OCC)C(=O)OCC (centres undefined)
A) > 100 µM

Q) And then Cc1ccc(NC(=O)Nc2c(Cl)cccc2Cl)cn1 , what is it?
A) > 100 µM

Q) Now the compound CC1C(=O)c2cc3c(cc2CCN(C)Cc2c1ccc1c2OCO1)OCO3 (centres undefined)
A) > 75 µg/mL

Q) What about O=C(O)C1CCCCN1C(=O)Cc1c[nH]c2ccccc12 (centres undefined) ?
A) > 100 µM

Q) Another compound to look at: O=c1ccc(=O)n(-c2ccccc2)[nH]1
A) > 100 µM

Q) Can you check COC1[C@H](NC(=O)OC(C)(C)C)C(=O)N1Cc1ccccc1 (some centres undefined) next?
A) > 100 µM

Q) Next entry: Oc1cnc2c(O)cccc2c1
A) > 100 µM

Q) Would you kindly repeat that for CC1=C(C(=O)NCc2ccccc2)C(c2ccccc2C)C(C(=O)NCc2ccccc2)=C(C)N1 ?
A) 42.8 µM
